Parameter koff: see the listing below.
Biological target: T1, recombinant human TIGIT (human, UniProt Q495A1 22-141, limits assumed)
T1 construct: recombinant human TIGIT used in Carterra SPR; also called hTIGIT
T1 sequence (looked up): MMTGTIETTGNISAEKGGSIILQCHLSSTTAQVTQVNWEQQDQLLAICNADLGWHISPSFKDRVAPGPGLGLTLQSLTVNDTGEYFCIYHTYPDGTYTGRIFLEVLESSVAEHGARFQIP
Test: SPR Carterra, average
Procedure: Binding affinities of VHH-Fc proteins to recombinant human TIGIT were measured by SPR using a Carterra instrument (Table 10A). […] Average values reported from measurements from 1-2 samples.
State the answer as a number, implicitly in s⁻¹.

Q) Consider the binder TIGIT-SC54 (Fc fusion, VHH-Fc fusion in assay) VHH: EVQLVESGGGLVQPGGSLRLSCAASGFSFDDYVMGWFRQAPGKERELVAVIVGEAITRYADSVKGRFTISADNSKNTAYLQMNSLKPEDTAVYYCARRGGSGRAFDIWGQGTLVTVSS and give its measured koff.
A) 0.00982

Q) Repeat with TIGIT-SC24 (Fc fusion, VHH-Fc fusion in assay) VHH: EVQLVESGGGLVQPGGSLRLSCAASGFTFDRSWMGWFRQAPGKEREVVASITSGGSTYYADSVKGRFTISADNSKNTAYLQMNSLKPEDTAVYYCAADVWYGSTWRNWGQGTLVTVSS
A) 0.000894

Q) Item: TIGIT-SC7 (Fc fusion, VHH-Fc fusion in assay) VHH: EVQLVESGGGLVQPGGSLRLSCAASGRSFSMYVMGWFRQAPGKEREGVSFISGSDGSTLYADSVKGRFTISADNSKNTAYLQMNSLKPEDTAVYYCARGSIAARPVFFDYWGQGTLVTVSS
A) 0.00372

Q) Also TIGIT-SC68 (Fc fusion, VHH-Fc fusion in assay) VHH: EVQLVESGGGLVQPGGSLRLSCAASGHTFRGYAMGWFRQAPGKEREAVAAISWSGDNTYYADSVKGRFTISADNSKNTAYLQMNSLKPEDTAVYYCGDYEGHWGQGTLVTVSS ?
A) 0.0103

Q) One more binder: TIGIT-SC147 (Fc fusion, VHH-Fc fusion in assay) VHH: EVQLVESGGGLVQPGGSLRLSCAASGTITSAVFMGWFRQAPGKEREFVAAVIWRGGSLKSYADSVKGRFTISADNSKNTAYLQMNSLKPEDTAVYYCAKLAVAGNYYYYGMDVWGQGTLVTVSS
A) 0.0115

Continuing:
Q) Entry TIGIT-SC16 (Fc fusion, VHH-Fc fusion in assay) VHH: EVQLVESGGGLVQPGGSLRLSCAASGTTFSSAAMGWFRQAPGKEREWVASVLRGGYTWYADSVKGRFTISADNSKNTAYLQMNSLKPEDTAVYYCARDPVELGDYWGQGTLVTVSS : reported koff = ?
A) 0.00387

Q) Next record, please: TIGIT-SC55 (Fc fusion, VHH-Fc fusion in assay) VHH: EVQLVESGGGLVQPGGSLRLSCAASGFPFDDYAMGWFRQAPGKERELVAVIRWTGMNTHYADSVKGRFTISADNSKNTAYLQMNSLKPEDTAVYYCAKGIAVAGAFDYWGQGTLVTVSS
A) 0.00231

Q) Repeat for the following binder: TIGIT-SC93 (Fc fusion, VHH-Fc fusion in assay) VHH: EVQLVESGGGLVQPGGSLRLSCAASSRTVSSHAMGWFRQAPGKEREFVAAISWSGVTTYYADSVKGRFTISADNSKNTAYLQMNSLKPEDTAVYYCARWRSIWSGYDDYYYMDVWGQGTLVTVSS
A) 0.00407
